test: in vivo; details: male, rat, iv
measured_quantity: Vd (L/kg)
Give just the numeric value; L/kg need not be written.

In: Param item = NC[C@H]1CN(c2cnc(N3CCS(=O)(=O)CC3)c(F)c2)C(=O)O1 ; retrieve measured Vd.
Out: 2.5

In: Param item = NC[C@H]1CN(c2cc(F)c(N3CCOCC3)c(F)c2)C(=O)O1 ; retrieve measured Vd.
Out: 2

In: Param item = COC(=O)NC[C@H]1CN(c2cc(F)c(N3CCS(=O)(=O)CC3)c(F)c2)C(=O)O1 ; retrieve measured Vd.
Out: 0.9

----------
assay: Plasma protein binding, rat plasma; type: in vitro ADME; conditions: equilibrium dialysis, 37° C., 4 hours, 2.5 uM, read-out: Rat fu
measured_quantity: fraction unbound at 4 h, 2.5 uM
Form: value (number only, do not type unit).

In: Param item = COC(=O)NC[C@H]1CN(c2cc(F)c(N3CCS(=O)(=O)CC3)c(F)c2)C(=O)O1 ; retrieve measured fraction unbound at 4 h, 2.5 uM.
Out: 0.42
